Consider the following molecules and their measured IC50 readings.
- test_description: Concentration required to inhibit proliferation of PPC-1 prostate cancer cell lines
- Assay type: functional, cell-based
- assay_setup: Homo sapiens
recorded_metric: IC50 (µM)

CCCCCCCCNC(=O)[C@H](CO)NC(=O)CCCCCCC = 81.2
CCCCCCCC/C=C/CCCCCCCCC(=O)NCCOP(=O)(O)O = 50
CCCCCCCC/C=C/CCCCCCCCNC(=O)[C@@H](N)CO = 5.1

---

- Test system: PC-3
- test_description: Concentration required to inhibit proliferation of PC-3 prostate cancer cell lines
- Type: functional, cell-based
- assay_setup: Homo sapiens
pIC50: −log10 of the molar value.
recorded_metric: pIC50

CCCCCCCC/C=C/CCCCCCCCNC(=O)[C@@H](N)CO = 5.23
CCCCCCCCNC(=O)[C@H](CO)NC(=O)CCCCCCC = 4.09
